Assignment: determine reported IC50 for the given compounds.
test system: PC-3 human prostatic cancer cells; experiment: Cell proliferation assay, Alamar Blue, PC-3; type: cell-based; conditions: Table 16, read-out: IC50 PC3
Numeric only. Scale: µM

Q: Recorded IC50 for `CNC(=O)c1cccc(Nc2nc3cc(C(=O)O)ccc3c3sccc23)c1` , please?
A: 26.7

Q: Please look up its IC50: `c1ccc(Nc2nc3cc(-c4nnn[nH]4)ccc3c3sccc23)cc1`
A: 20

Q: Would you mind telling me what IC50 value was observed for `O=C(O)c1ccc2c(c1)nc(Nc1cccc(F)c1)c1ccsc12` ?
A: 2.66

Q: Find the recorded IC50 belonging to `c1ccc(Nc2nc3cc(-c4nnc[nH]4)ccc3c3sccc23)cc1` and report it.
A: 7.26

Q: So what's the measured IC50 for this one? `O=C(O)c1ccc2c(c1)nc(Nc1cccc(Cl)c1)c1ccsc12`
A: 16.7
